Would you mind telling me the reported Protein binding (%) (mean, n = 2) of each entry?
# assayProtocol: Protein binding in fresh human serum (size-exclusion MicroSpin G-50)
# Type: in vitro ADME
# statedConditions: 37 °C, 24
One number for each entry, in %.

Before answering, review these 3 worked examples.
compound: CC(=CC(=O)N([O-])CCCC1NC(=O)CNC(=O)C(CO)NC(=O)C(CO)NC(=O)C(CCCN([O-])C(=O)C=C(C)C(=O)O)NC(=O)C(CCCN([O-])C(=O)C=C(C)C(=O)O)NC1=O)C(=O)O.[89Zr+4] (stereo not shown) [[^89Zr]FCHA]
val: 31.05

compound: O=C1CCC(=O)N([O-])CCCCCNC(=O)CCC(=O)N([O-])CCCCCNC(=O)CCC(=O)N([O-])CCCCCN1.[89Zr+4] [[^89Zr]FOXE, [^89Zr]ferrioxamine E]
val: 16.59

compound: CC(=O)N([O-])CCCCCNC(=O)CCC(=O)N([O-])CCCCCNC(=O)CCC(=O)N([O-])CCCCCN.[89Zr+4] [[^89Zr]FOXB]
val: 1.84

**Q:** I would be grateful if you could share the reported Protein binding (%) (mean, n = 2) for CC(=O)NC1CCCN([O-])C(=O)C=C(C)CCOC(=O)C(NC(C)=O)CCCN([O-])C(=O)C=C(C)CCOC(=O)C(NC(C)=O)CCCN([O-])C(=O)C=C(C)CCOC1=O.[89Zr+4] (stereo not shown) [[^89Zr]TAFC, [^89Zr]triacetylfusarinine C] .
**A:** 1.37

---

Would you mind telling me the reported Stability in DTPA solution (%) (n = 1) of each entry?
# assayProtocol: In vitro stability in 6 mM DTPA solution pH 7 (RP-HPLC)
# Assay type: physicochemical
# statedConditions: 6 mM DTPA pH 7, 37 °C, Incubation time (min) 1
Numbers only, in %.

Before answering, review these 3 worked examples.
compound: CC(=O)NC1CCCN([O-])C(=O)C=C(C)CCOC(=O)C(NC(C)=O)CCCN([O-])C(=O)C=C(C)CCOC(=O)C(NC(C)=O)CCCN([O-])C(=O)C=C(C)CCOC1=O.[89Zr+4] (stereo not shown) [[^89Zr]TAFC, [^89Zr]triacetylfusarinine C]
measureUnit: %
val: 99.51

compound: O=C1CCC(=O)N([O-])CCCCCNC(=O)CCC(=O)N([O-])CCCCCNC(=O)CCC(=O)N([O-])CCCCCN1.[89Zr+4] [[^89Zr]FOXE, [^89Zr]ferrioxamine E]
measureUnit: %
val: 99.70

compound: CC(=CC(=O)N([O-])CCCC1NC(=O)CNC(=O)C(CO)NC(=O)C(CO)NC(=O)C(CCCN([O-])C(=O)C=C(C)C(=O)O)NC(=O)C(CCCN([O-])C(=O)C=C(C)C(=O)O)NC1=O)C(=O)O.[89Zr+4] (stereo not shown) [[^89Zr]FCHA]
measureUnit: %
val: 68.70

Continue with the compound presented below.
**Q:** I would be grateful if you could share the reported Stability in DTPA solution (%) (n = 1) for CC(=O)N([O-])CCCCCNC(=O)CCC(=O)N([O-])CCCCCNC(=O)CCC(=O)N([O-])CCCCCN.[89Zr+4] [[^89Zr]FOXB] .
**A:** 91.56

---

# assayProtocol: Protein binding in fresh human serum (size-exclusion MicroSpin G-50)
# Type: in vitro ADME
# statedConditions: 37 °C, 1
Would you mind telling me the reported Protein binding (%) (mean, n = 2) of each entry?
Answers are plain numbers, in %.

Before answering, review these 3 worked examples.
molecule: CC(=O)NC1CCCN([O-])C(=O)C=C(C)CCOC(=O)C(NC(C)=O)CCCN([O-])C(=O)C=C(C)CCOC(=O)C(NC(C)=O)CCCN([O-])C(=O)C=C(C)CCOC1=O.[89Zr+4] (stereo not shown) [[^89Zr]TAFC, [^89Zr]triacetylfusarinine C]
Protein binding (%) (mean, n = 2): 0.99

molecule: CC(=O)N([O-])CCCCCNC(=O)CCC(=O)N([O-])CCCCCNC(=O)CCC(=O)N([O-])CCCCCN.[89Zr+4] [[^89Zr]FOXB]
Protein binding (%) (mean, n = 2): 1.63

molecule: CC(=CC(=O)N([O-])CCCC1NC(=O)CNC(=O)C(CO)NC(=O)C(CO)NC(=O)C(CCCN([O-])C(=O)C=C(C)C(=O)O)NC(=O)C(CCCN([O-])C(=O)C=C(C)C(=O)O)NC1=O)C(=O)O.[89Zr+4] (stereo not shown) [[^89Zr]FCHA]
Protein binding (%) (mean, n = 2): 2.70

**Q:** I would be grateful if you could share the reported Protein binding (%) (mean, n = 2) for O=C1CCC(=O)N([O-])CCCCCNC(=O)CCC(=O)N([O-])CCCCCNC(=O)CCC(=O)N([O-])CCCCCN1.[89Zr+4] [[^89Zr]FOXE, [^89Zr]ferrioxamine E] .
**A:** 3.27
